Reference source: patent US12091426B2

Recorded measurements of Dmax, one per entry
Target: HPK1 (Homo sapiens)
Construct: A HiBiT tag was introduced by CRISPR on the N terminus of HPK1 in Jurkat cells; host or cells: Jurkat cells (ATCC TIB-152), monoclonal line with CRISPR knock-in of HiBiT at the endogenous HPK1 locus
Assay: HPK1 Cellular HiBit Degradation Assay
Assay type: cell-based
Details: Jurkat, HiBiT HPK1 Jurkat cells, 24 hrs; maximum degradation vs DMSO vehicle control; read-out: Dmax Category
Readout kind: Dmax

>>> measured("CC(C)n1cnc2cc(-c3ccc4c(c3)N([C@H]3C[C@@H](N5CCCCC5)C3)C(=O)C43CCN(C(=O)C4CCN(C(=O)[C@H]5CC[C@H](N(C)c6ccc(C7CCC(=O)NC7=O)cn6)CC5)CC4)CC3)nc(NC3CC3)c21 (mixture of isomers) [Example 130]")
"50 to 70%"
>>> measured("CC(C)n1cnc2cc(-c3ccc4c(c3)N([C@H]3C[C@@H](N5CCCCC5)C3)C(=O)C43CCN(C(=O)C4(C)CCN(C(=O)C5CCN(c6ccc(N7CCC(=O)NC7=O)cn6)CC5)CC4)CC3)nc(NC3CC3)c21 [Example 115]")
"70 to 85%"
>>> measured("CC(C)n1cnc2cc(-c3ccc4c(c3)N([C@H]3C[C@@H](N5CCCCC5)C3)C(=O)C43CCN(C(=O)[C@H]4CC[C@H](C(=O)N5CCC(N(C)c6ccc(C7CCC(=O)NC7=O)cn6)CC5)CC4)CC3)nc(NC3CC3)c21 (mixture of isomers) [Example 137]")
"70 to 85%"
>>> measured("CC(C)n1cnc2cc(-c3ccc4c(c3)N([C@H]3C[C@@H](N5CCCCC5)C3)C(=O)C43CCN(C(=O)C4CCN(C(=O)[C@H]5CC[C@H](n6cc7cc(C8CCC(=O)NC8=O)ccc7n6)CC5)CC4)CC3)nc(NC3CC3)c21 (stereo partly shown) [Example 179]")
"70 to 85%"

====

Recorded measurements of DC50, one per entry
Biological target: HPK1 (Homo sapiens, UniProt Q92918)
Construct: A HiBiT tag was introduced by CRISPR on the N terminus of HPK1 in Jurkat cells; host or cells: Jurkat cells (ATCC TIB-152), monoclonal line with CRISPR knock-in of HiBiT at the endogenous HPK1 locus
Sequence (Q92918 whole entry): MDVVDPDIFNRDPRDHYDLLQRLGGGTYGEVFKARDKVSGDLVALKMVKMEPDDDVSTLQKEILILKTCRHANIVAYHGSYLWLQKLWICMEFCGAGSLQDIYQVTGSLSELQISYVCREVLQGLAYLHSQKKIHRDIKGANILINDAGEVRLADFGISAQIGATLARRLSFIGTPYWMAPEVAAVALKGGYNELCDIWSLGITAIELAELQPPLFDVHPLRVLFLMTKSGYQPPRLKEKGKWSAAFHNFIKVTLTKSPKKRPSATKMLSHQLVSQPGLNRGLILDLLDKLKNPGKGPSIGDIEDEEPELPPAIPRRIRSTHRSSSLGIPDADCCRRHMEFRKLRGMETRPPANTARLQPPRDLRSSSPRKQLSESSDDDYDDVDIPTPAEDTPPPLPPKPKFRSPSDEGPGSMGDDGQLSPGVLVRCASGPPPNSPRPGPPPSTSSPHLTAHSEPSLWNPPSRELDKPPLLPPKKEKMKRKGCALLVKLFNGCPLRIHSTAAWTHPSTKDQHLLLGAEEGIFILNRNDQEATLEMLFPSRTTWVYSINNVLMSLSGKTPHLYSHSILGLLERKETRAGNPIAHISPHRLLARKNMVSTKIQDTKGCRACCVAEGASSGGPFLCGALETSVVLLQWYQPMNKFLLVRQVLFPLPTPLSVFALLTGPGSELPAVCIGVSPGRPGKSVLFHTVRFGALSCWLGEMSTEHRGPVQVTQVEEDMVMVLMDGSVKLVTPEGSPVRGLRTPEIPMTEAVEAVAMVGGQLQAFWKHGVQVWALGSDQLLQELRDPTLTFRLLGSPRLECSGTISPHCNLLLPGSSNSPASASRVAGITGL
Assay: HPK1 Cellular HiBit Degradation Assay
Type: cell-based
Settings: HiBiT HPK1 Jurkat cells, 24 hrs; concentration at which 50% of HPK1 was remaining; read-out: DC50 Category
Readout kind: DC50

>>> measured("CC(C)n1cnc2cc(-c3ccc4c(c3)N([C@H]3C[C@@H](N5CCCCC5)C3)C(=O)C43CCN(C(=O)[C@@H]4CCN(C(=O)C5CCN(c6ccc(C7CCC(=O)NC7=O)cn6)CC5)C4)CC3)nc(Nc3ccccc3F)c21 (some centres unmarked)")
"< 100 nM"
>>> measured("CC(C)n1cnc2cc(-c3ccc4c(c3)N([C@H]3C[C@@H](N5CCCCC5)C3)C(=O)C43CCN(C(=O)C4CCN(C(=O)C5CCN(c6ccc(C7CCC(=O)NC7=O)cn6)CC5)CC4(F)F)CC3)nc(NC3CC3)c21 (mixture of isomers)")
"< 100 nM"

====

Molecular target: HPK1 (Homo sapiens, UniProt Q92918)
Construct: A HiBiT tag was introduced by CRISPR on the N terminus of HPK1 in Jurkat cells; host or cells: Jurkat cells (ATCC TIB-152), monoclonal line with CRISPR knock-in of HiBiT at the endogenous HPK1 locus
Assay: HPK1 Cellular HiBit Degradation Assay
Assay type: cell-based
Conditions: HiBiT HPK1 Jurkat cells, 24 hrs; maximum degradation vs DMSO vehicle control
Readout kind: Dmax Category

>>> measured("CC(C)n1cnc2cc(-c3ccc4c(c3)N(C3CC(N5CCCCC5)C3)C(=O)C43CCN(C(=O)CC4(C)CCN(C(=O)C5CCN(c6ccc(C7CCC(=O)NC7=O)cn6)CC5)CC4)CC3)nc(NC3CC3)c21 (racemic)")
"B (B: >70%-<85%)"
>>> measured("Cc1cc(C2CCC(=O)NC2=O)cnc1N1CCC(C(=O)N2CCC(C)(C(=O)N3CCC4(CC3)C(=O)N(C3CC(N5CCCCC5)C3)c3cc(-c5cc6ncn(C(C)C)c6c(NC6CC6)n5)ccc34)CC2)CC1 (racemic)")
"B (B: >70%-<85%)"

====

Biological target: HPK1 (Homo sapiens, UniProt Q92918)
Construct: A HiBiT tag was introduced by CRISPR on the N terminus of HPK1 in Jurkat cells; host or cells: Jurkat cells (ATCC TIB-152), monoclonal line with CRISPR knock-in of HiBiT at the endogenous HPK1 locus
Assay: HPK1 Cellular HiBit Degradation Assay
Assay type: cell-based
Settings: HiBiT HPK1 Jurkat cells, 24 hrs; concentration at which 50% of HPK1 was remaining; read-out: DC50 Category
Recorded measurements of DC50, one per entry
Readout kind: DC50

>>> measured("CC(C)n1cnc2cc(-c3ccc4c(c3)N([C@H]3C[C@@H](N5CCCCC5)C3)C(=O)C43CCN(S(=O)(=O)C4CCN(C(=O)C5CCN(c6ccc(C7CCC(=O)NC7=O)cn6)CC5)CC4)CC3)nc(NC3CC3)c21 (mixture of isomers) [Example 159]")
"< 100 nM"
>>> measured("CC(C)n1cnc2cc(-c3ccc4c(c3)N([C@H]3C[C@@H](N5CCCCC5)C3)C(=O)C43CCN(C(=O)c4ccc(C(=O)N(C)C5CCN(c6ccc(C7CCC(=O)NC7=O)cn6)CC5)cc4)CC3)nc(Nc3ccccc3F)c21 (mixture of isomers) [Example 141]")
"500 to 1000 nM"
>>> measured("CC(C)n1cnc2cc(-c3ccc4c(c3)N([C@H]3C[C@@H](N5CCCCC5)C3)C(=O)C43CCN(C(=O)C4CCN(C(=O)CC5CCN(c6ccc(C7CCC(=O)NC7=O)cn6)CC5)CC4)CC3)nc(Nc3ccccc3F)c21 (stereo partly shown) [Example 92]")
"< 100 nM"
>>> measured("CC(C)n1cnc2cc(-c3ccc4c(c3)N([C@H]3C[C@@H](N5CCCCC5)C3)C(=O)C43CCN(C(=O)C4(F)CCN(C(=O)C5CCN(c6ccc(C7CCC(=O)NC7=O)cn6)CC5)CC4)CC3)nc(NC3CC3)c21 (mixture of isomers) [Example 277]")
"< 100 nM"

====

Molecular target: HPK1 (Homo sapiens, UniProt Q92918)
Construct: A HiBiT tag was introduced by CRISPR on the N terminus of HPK1 in Jurkat cells; host or cells: Jurkat cells (ATCC TIB-152), monoclonal line with CRISPR knock-in of HiBiT at the endogenous HPK1 locus
Assay: HPK1 Cellular HiBit Degradation Assay
Type: cell-based
Conditions: Jurkat, HiBiT HPK1 Jurkat cells, 24 hrs; maximum degradation vs DMSO vehicle control; read-out: Dmax Category
Recorded measurements of Dmax, one per entry
Readout kind: Dmax

>>> measured("CC(C)n1cnc2cc(-c3ccc4c(c3)N([C@H]3C[C@@H](N5CCCCC5)C3)C(=O)C43CCN(C(=O)C4C5COCC4CN(C(=O)C4CCN(c6ccc(C7CCC(=O)NC7=O)cn6)CC4)C5)CC3)nc(NC3CC3)c21 (mixture of isomers)")
"> 85%"
>>> measured("CC(C)n1cnc2cc(-c3ccc4c(c3)N([C@H]3C[C@@H](N5CCCCC5)C3)C(=O)C43CCN(C(=O)c4cccc(C5CCN(C(=O)C6CCN(c7ccc(C8CCC(=O)NC8=O)cn7)CC6)CC5)c4)CC3)nc(NC3CC3)c21 (mixture of isomers)")
"50 to 70%"
>>> measured("CC(C)n1cnc2cc(-c3ccc4c(c3)N([C@H]3C[C@@H](N5CCCCC5)C3)C(=O)C43CCN(C(=O)C4(C)CCN(C(=O)C5CCN(c6ncc(C7CCC(=O)NC7=O)cn6)CC5)CC4)CC3)nc(NC3CC3)c21 (mixture of isomers)")
"70 to 85%"
>>> measured("CC(C)n1cnc2cc(-c3ccc4c(c3)N([C@H]3C[C@@H](N5CCCCC5)C3)C(=O)C43CCN(C(=O)[C@H]4CCN(C(=O)C5CCN(c6ccc(C7CCC(=O)NC7=O)cn6)CC5)C4)CC3)nc(NC3CC3)c21 (mixture of isomers)")
"50 to 70%"

====

Recorded measurements of Dmax, one per entry
Target: HPK1 (Homo sapiens)
Construct: A HiBiT tag was introduced by CRISPR on the N terminus of HPK1 in Jurkat cells; host or cells: Jurkat cells (ATCC TIB-152), monoclonal line with CRISPR knock-in of HiBiT at the endogenous HPK1 locus
Test: HPK1 Cellular HiBit Degradation Assay
Format: cell-based
Details: Jurkat, HiBiT HPK1 Jurkat cells, 24 hrs; maximum degradation vs DMSO vehicle control; read-out: Dmax Category
Readout kind: Dmax

>>> measured("CC(C)n1cnc2cc(-c3ccc4c(c3)N([C@H]3C[C@@H](N5CCCCC5)C3)C(=O)C43CCN(C(=O)C4CCN(C(=O)C5CCN(c6ccc7c(c6)C(=O)N(C6CCC(=O)NC6=O)C7=O)CC5)CC4)CC3)nc(Nc3ccccc3F)c21 (mixture of isomers)")
"70 to 85%"
>>> measured("CC(C)n1cnc2cc(-c3ccc4c(c3)N([C@H]3C[C@@H](N5CCCCC5)C3)C(=O)C43CCN(C(=O)C4CCN(C(=O)C5CCN(c6ccc7c(c6)C(=O)N(C6CCC(=O)NC6=O)C7=O)CC5)CC4)CC3)nc(NC3CC3)c21 (mixture of isomers)")
"70 to 85%"
>>> measured("CC(C)n1cnc2cc(-c3ccc4c(c3)N([C@H]3C[C@@H](N5CCC[C@@H](F)C5)C3)C(=O)C43CCN(C(=O)C4(C)CCN(C(=O)C5CCN(c6ccc(C7CCC(=O)NC7=O)cc6)CC5)CC4)CC3)nc(NC3CC3)c21 (mixture of isomers)")
"50 to 70%"
>>> measured("CC(C)n1cnc2cc(-c3ccc4c(c3)N([C@H]3C[C@@H](N5CCCCC5)C3)C(=O)C43CCN(C(=O)C4CCN(C(=O)[C@H]5CC[C@H](Nc6ccc(C7CCC(=O)NC7=O)cc6)CC5)CC4)CC3)nc(Nc3ccncc3F)c21 (mixture of isomers)")
"50 to 70%"
